Biological target: T1, human MSR1 with a C-terminal Myc tag expressed on HEK293.Myc.hMSR1 cells (human, UniProt P21757 1-451)
T1 sequence (looked up): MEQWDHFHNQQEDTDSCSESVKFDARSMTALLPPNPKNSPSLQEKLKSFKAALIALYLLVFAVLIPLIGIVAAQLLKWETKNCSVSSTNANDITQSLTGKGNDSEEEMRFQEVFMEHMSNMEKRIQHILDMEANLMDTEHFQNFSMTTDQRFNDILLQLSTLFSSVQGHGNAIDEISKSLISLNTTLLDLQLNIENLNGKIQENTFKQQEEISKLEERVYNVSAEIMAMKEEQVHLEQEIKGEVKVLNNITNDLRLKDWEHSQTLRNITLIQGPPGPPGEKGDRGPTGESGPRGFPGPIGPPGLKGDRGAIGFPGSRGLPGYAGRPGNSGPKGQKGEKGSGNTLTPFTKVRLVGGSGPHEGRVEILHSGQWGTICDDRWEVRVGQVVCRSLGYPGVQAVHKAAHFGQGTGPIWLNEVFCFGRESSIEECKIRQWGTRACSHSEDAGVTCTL
Test: cell-based or functional assay

binder	% Inhibition of Dil-Oxidized LDL uptake / %
H2aM25700N (antibody, V domains shown) VH: QVQLVQSGSEVKKPGASVKVSCKVSGYTLTELSIHWVRQAPGKGLEWMGGFDPEDGETIYAQKFRGRVTMTEDISPDTAYMELSSLRSEDTAVYYCATPRYCNNGICYDYWGQGTLVTVSS VL: DIQMTQSPSSLSASIGDRVTITCRASQSISSYLNWYQQKPGKAPMLLIYAASSLQSGVPSRFSGSGSGTDFTLTISSLQTEDFATYYCQQSYSTPPITFGQGTRLEIKR	91
H1H21227N (antibody, V domains shown) VH: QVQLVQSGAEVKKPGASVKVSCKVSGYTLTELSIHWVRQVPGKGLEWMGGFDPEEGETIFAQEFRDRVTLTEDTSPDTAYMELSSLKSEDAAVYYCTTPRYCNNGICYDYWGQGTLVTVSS VL: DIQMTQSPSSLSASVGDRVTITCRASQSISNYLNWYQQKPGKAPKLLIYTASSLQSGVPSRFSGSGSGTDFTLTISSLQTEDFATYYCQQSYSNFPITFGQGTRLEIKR	89
H1H21227N-N297Q (antibody, V domains shown) VH: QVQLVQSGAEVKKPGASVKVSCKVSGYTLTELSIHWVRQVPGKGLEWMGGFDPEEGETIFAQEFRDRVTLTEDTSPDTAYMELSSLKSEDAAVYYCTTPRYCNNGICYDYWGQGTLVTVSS VL: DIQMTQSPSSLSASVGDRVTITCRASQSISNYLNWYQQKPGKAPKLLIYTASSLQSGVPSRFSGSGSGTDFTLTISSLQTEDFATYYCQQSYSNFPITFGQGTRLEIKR	94
H1H21231N (antibody, V domains shown) VH: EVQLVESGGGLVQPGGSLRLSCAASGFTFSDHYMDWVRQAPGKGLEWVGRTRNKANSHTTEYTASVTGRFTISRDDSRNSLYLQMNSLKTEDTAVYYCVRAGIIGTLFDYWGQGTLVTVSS VL: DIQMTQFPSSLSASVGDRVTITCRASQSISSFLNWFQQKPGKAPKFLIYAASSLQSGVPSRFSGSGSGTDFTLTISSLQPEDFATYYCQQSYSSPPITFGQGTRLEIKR	78
